System: eosinophils
Test: Eosinophil shape change assay with human plasma
Type: cell-based
Conditions: Homo sapiens, Eosinophil, human plasma (50%), PGD2 100 nM activation, antagonistic activity
Experimental: Eosinophil Shape Change Assay with Human Plasma After obtaining informed consent, blood samples were drawn by venipuncture according to the protocol approved by the ethics committee of Basel, Switzerland. […] Immediately after fixation with paraformaldehyde, the samples were analyzed by FACSCanto flow cytometer (BD Biosciences) and target cells were identified by their forward-scatter (FSC) and side-scatter (SSC) characteristics. […]
ASSAY_ENDPOINT: log10(IC50) (log10 of the value in nM)
# log10 transformed; quantity=IC50; unit=nM

The reported value for COc1ccc(CC(=O)O)cc1-c1ccc(F)c2c1CN(C(=O)[C@@H]1C[C@H]1c1ccccc1)CC2 [Example 80] in terms of log10(IC50) is 0.67

log10(IC50) in this record for CCOc1cc(CC(=O)O)ccc1-c1ccc(F)c2c1CN(C(=O)OCc1ccccc1)CC2 : 1.11

Short answer for CCOc1ccc(CC(=O)O)cc1-c1ccc(F)c2c1CN(C(=O)CC1COc3ccccc31)CC2 (racemic) : log10(IC50) was 1.58

Form field log10(IC50), entry CCOc1cc(CC(=O)O)ccc1-c1ccc(F)c2c1CN(C(=O)OCc1ccc(F)cc1)CC2 : 1.00

Reported log10(IC50) ( CC(C)Oc1cc(CC(=O)O)ccc1-c1ccc(F)c2c1CN(C(=O)OCc1ccccc1)CC2 ) = 1.66

Lookup result for O=C(O)COc1ccc(OC(F)(F)F)c(-c2ccc(F)c3c2CN(C(=O)OCc2ccccc2)CC3)c1 ; measured log10(IC50): 2.23

The compound listed as CCOc1ccc(CC(=O)O)cc1-c1ccc(F)c2c1CN(C(=O)CC(C)c1cccc(F)c1)CC2 (racemic) shows log10(IC50) equal to 1.65

###

tested on: eosinophils; experiment: Eosinophil shape change assay with human plasma; format: cell-based; settings: Homo sapiens, Eosinophil, human plasma (50%), PGD2 100 nM activation, antagonistic activity
The class of a record is decided solely by its measured IC50; consult low range: < 20 nM; mid range: ≥ 20 nM and < 60 nM; high range: ≥ 60 nM

Prompt: Band assignment needed for COc1ccc(CC(=O)O)cc1-c1ccc(F)c2c1CN(C(=O)CCc1c(C)[nH]c3ccccc13)CC2 please.
Response: mid range

Prompt: Looking at CCOc1ccc(CC(=O)O)cc1-c1ccc(F)c2c1CN(C(=O)OCc1ccc(F)cc1)CC2 , which class would you pick?
Response: low range

Prompt: Hello team, could you let me know which band the following compound falls into: COc1ccc(CC(=O)O)cc1-c1ccc(F)c2c1CN(C(=O)[C@@H]1C[C@H]1c1ccc(F)cc1)CC2 (racemic)
Response: low range

Prompt: Into which category would you place COc1ccc(CC(=O)O)cc1-c1ccc(F)c2c1CN(C(=O)OCc1cccc(F)c1F)CC2 ?
Response: high range

Prompt: Which category does the recorded IC50 put COc1ccc(CC(=O)O)cc1-c1ccc(F)c2c1CN(C(=O)CCN1CCc3ccccc31)CC2 in?
Response: high range

Prompt: Hi there! Could you help me figure out the category for CCOc1cc(CC(=O)O)ccc1-c1ccc(F)c2c1CN(C(=O)OCc1ccc(F)cc1F)CC2 please?
Response: low range

Prompt: Pick a category. Item: CCOc1cc(CC(=O)O)ccc1-c1ccc(F)c2c1CN(C(=O)CC(C)(C)c1ccccc1)CC2
Response: low range

Prompt: Lab log: COc1cc(CC(=O)O)ccc1-c1ccc(F)c2c1CN(C(=O)C[C@@H](C)c1ccccc1)CC2 — assign IC50 category
Response: high range

Prompt: Please let me know in which category the item COc1ccc(CC(=O)O)cc1-c1ccc(F)c2c1CN(C(=O)OCc1ccccc1)CC2 belongs.
Response: high range

Prompt: Band for the recorded IC50 of CCOc1ccc(CC(=O)O)cc1-c1ccc(F)c2c1CN(C(=O)CC1CCOc3ccccc31)CC2 (racemic) ?
Response: mid range

Prompt: Categorize the following entry: CCOc1ccc(CC(=O)O)cc1-c1ccc(F)c2c1CN(C(=O)CCc1ccccn1)CC2
Response: low range

Prompt: Band assignment needed for CCOc1cc(CC(=O)O)ccc1-c1ccc(F)c2c1CN(C(=O)OCc1cc(F)ccc1F)CC2 please.
Response: low range

Prompt: Band for COc1ccc(CC(=O)O)cc1-c1ccc(F)c2c1CN(C(=O)CCc1cn(C)c3ccccc13)CC2 ?
Response: high range

Prompt: Band for COc1ccc(CC(=O)O)cc1-c1c(F)cc(F)c2c1CN(C(=O)OCc1ccccc1)CC2 ?
Response: high range

Prompt: Dear colleague, I would appreciate it if you could identify the bin for CCOc1cc(CC(=O)O)ccc1-c1ccc(F)c2c1CN(C(=O)CC(C)(C)c1ccc(F)cc1)CC2 and reply at your convenience.
Response: low range

Prompt: # classify by IC50 band: COc1ccc(CC(=O)O)cc1-c1ccc(F)c2c1CN(C(=O)CC(C)(C)c1cccc(F)c1)CC2
Response: high range

Prompt: Just checking, what class would you give CCOc1ccc(CC(=O)O)cc1-c1ccc(F)c2c1CN(C(=O)OCc1ccccn1)CC2 here?
Response: low range

Prompt: Class label required: COc1cc(CC(=O)O)ccc1-c1ccc(F)c2c1CN(C(=O)CCc1cn(C)c3ccccc13)CC2
Response: high range

Prompt: In plain terms, what class is COc1cc(CC(=O)O)ccc1-c1ccc(F)c2c1CN(C(=O)CC1CCc3ccccc31)CC2 (racemic) ?
Response: mid range

Prompt: Exercise: read the entry CCOc1cc(CC(=O)O)ccc1-c1ccc(F)c2c1CN(C(=O)CC1OCCc3ccccc31)CC2 (stereo not drawn) [Example 205] and state which class it falls under.
Response: low range

Prompt: Which bin should I file COc1ccc(CC(=O)O)cc1-c1ccc(Cl)c2c1CN(C(=O)[C@@H]1C[C@H]1c1ccccc1)CC2 under?
Response: mid range

Prompt: For the record CCOc1ccc(CC(=O)O)cc1-c1ccc(F)c2c1CN(C(=O)CC(C)(C)c1ccc(F)cc1)CC2 , report the class its IC50 corresponds to.
Response: low range

Prompt: Hi, small favor: classify CCOc1cc(CC(=O)O)ccc1-c1ccc(F)c2c1CN(C(=O)CC(C)c1ccccn1)CC2 (racemic) by its IC50 when you get a moment.
Response: mid range

Prompt: Quick check: band for COc1ccc(CC(=O)O)cc1-c1ccc(F)c2c1CCN(C(=O)[C@@H]1C[C@H]1c1ccccc1)CC2 (racemic)
Response: high range

Prompt: Please classify: CCOc1ccc(CC(=O)O)cc1-c1ccc(F)c2c1CN(C(=O)C(C)Cc1ccccc1)CC2 (stereo not drawn)
Response: low range

Prompt: Could you tell me which band CCOc1ccc(CC(=O)O)cc1-c1ccc(F)c2c1CN(C(=O)OCc1ccccc1F)CC2 belongs to?
Response: mid range

Prompt: Exam item: assign CCOc1ccc(CC(=O)O)cc1-c1ccc(F)c2c1CN(C(=O)OCc1ccccc1)CC2 to the correct category.
Response: mid range

Prompt: // return the class label for CCOc1ccc(CC(=O)O)cc1-c1ccc(F)c2c1CN(C(=O)OCC1CC1)CC2
Response: high range

Prompt: Each compound maps to one class by IC50. Which class for COc1ccc(CC(=O)O)cc1-c1ccc(F)c2c1CN(C(=O)COCc1ccccc1Cl)CC2 ?
Response: high range

Prompt: Which IC50 band matches CCOc1ccc(CC(=O)O)cc1-c1ccc(F)c2c1CN(C(=O)C(C)Cc1ccccn1)CC2 (racemic) ?
Response: mid range

###

What pIC50 was measured for each of the following?
Remember, pIC50 is on a log scale: it is -log10 of the molar concentration.

Field pIC50 (hCRTH2 receptor (Homo sapiens (Human))), entry COc1ccc(CC(=O)O)cc1-c1ccc(F)c2c1CN(C(=O)CCCc1ccccc1)CC2 : 8.27

Recorded pIC50 for CCOc1ccc(CC(=O)O)cc1-c1ccc(F)c2c1CN(C(=O)C[C@@H](C)c1ccccc1)CC2 on hCRTH2 receptor (Homo sapiens (Human)) was 8.92

The observed pIC50 for CCOc1ccc(CC(=O)O)cc1-c1ccc(F)c2c1CN(C(=O)OCc1ccc(F)cc1)CC2 when tested with hCRTH2 receptor (Homo sapiens (Human)) stands at 8.47

Form field, pIC50 with hCRTH2 receptor (Homo sapiens (Human)), item CCOc1cc(CC(=O)O)ccc1-c1ccc(F)c2c1CN(C(=O)CCc1ncccc1OC)CC2 : 7.34

Entry COc1ccc(CC(=O)O)cc1-c1ccc(F)c2c1CCN(C(=O)[C@@H]1C[C@H]1c1ccccc1)CC2 (racemic) , tested on hCRTH2 receptor (Homo sapiens (Human)), has a reported pIC50 of 7.70

pIC50 of CCOc1ccc(CC(=O)O)cc1-c1ccc(F)c2c1CN(C(=O)NCc1ccccn1)CC2 , assay on hCRTH2 receptor (Homo sapiens (Human)), is 7.85

Value sought: pIC50, system hCRTH2 receptor (Homo sapiens (Human)), item CCOc1cc(CC(=O)O)ccc1-c1ccc(F)c2c1CN(C(=O)Cc1ccccn1)CC2 . Result: 6.82

Entry CCOc1ccc(CC(=O)O)cc1-c1ccc(F)c2c1CN(C(=O)OCc1ccccc1)CC2 , hCRTH2 receptor (Homo sapiens (Human)) data, pIC50 value: 8.97

Value (pIC50, hCRTH2 receptor (Homo sapiens (Human))) for record CCOc1cc(CC(=O)O)ccc1-c1ccc(F)c2c1CN(C(=O)O[C@H](C)c1ccccc1)CC2 = 7.45

Given the compound COc1ccc(CC(=O)O)cc1-c1ccc(F)c2c1CN(C(=O)CC1CCOc3cc(F)ccc31)CC2 (racemic) and test system hCRTH2 receptor (Homo sapiens (Human)), the measured pIC50 is 7.69

Param item: COc1ccc(CC(=O)O)cc1-c1ccc(F)c2c1CN(C(=O)OCc1ccccc1)C2 ; param system: hCRTH2 receptor (Homo sapiens (Human)); output pIC50: 6.78

# CCOc1ccc(CC(=O)O)cc1-c1ccc(F)c2c1CN(C(=O)CC(C)c1ccc(F)cc1)CC2 (stereo not drawn) [Example 212] with hCRTH2 receptor (Homo sapiens (Human)): pIC50 is 7.94

Observed pIC50 on hCRTH2 receptor (Homo sapiens (Human)), entry Cc1cccc(CCC(=O)N2CCc3c(F)ccc(-c4cc(CC(=O)O)ccc4OCC(F)(F)F)c3C2)n1 , equals 7.90

pIC50 on hCRTH2 receptor (Homo sapiens (Human)) for O=C(O)Cc1cc(-c2ccc(F)c3c2CN(C(=O)OCc2ccccc2)CC3)ccc1Cl is 7.16

Tested on hCRTH2 receptor (Homo sapiens (Human)): COc1ccc(CC(=O)O)cc1-c1ccc(F)c2c1CN(C(=O)CC1CCOc3ccccc31)CC2 (racemic) . Observed pIC50: 8.08

GET /values?item= CCOc1cc(CC(=O)O)ccc1-c1ccc(F)c2c1CN(C(=O)CC1CCc3ccccc31)CC2 (racemic) &system= hCRTH2 receptor (Homo sapiens (Human)) returns pIC50: 8.96

Entry COc1ccc(CC(=O)O)cc1-c1ccc(F)c2c1CN(C(=O)CCc1ccccc1)CC2 under hCRTH2 receptor (Homo sapiens (Human)) had pIC50 of 8.23

The recorded pIC50 with hCRTH2 receptor (Homo sapiens (Human)) for CC(C)(C)Oc1ccc(CC(=O)O)cc1-c1ccc(F)c2c1CN(C(=O)OCc1ccccc1)CC2 was 8.55

Per the reported hCRTH2 receptor (Homo sapiens (Human)) data, COc1ccc(CC(=O)O)cc1-c1ccc(F)c2c1CN(C(=O)[C@@H]1C[C@H]1c1ccc(Cl)cc1)CC2 has pIC50 of 8.95

Result for CCOc1ccc(CC(=O)O)cc1-c1ccc(F)c2c1CN(C(=O)CC1(c3ccccc3)CC1)CC2 , tested on hCRTH2 receptor (Homo sapiens (Human)), pIC50: 7.58

Item: CC(C)Oc1ccc(CC(=O)O)cc1-c1ccc(F)c2c1CN(C(=O)C[C@@H](C)c1ccccc1)CC2 | System: hCRTH2 receptor (Homo sapiens (Human)) | pIC50: 8.60

# lookup: O=C(O)COc1ccc(Cl)c(-c2cccc3c2CN(C(=O)OCc2ccccc2)CC3)c1 on hCRTH2 receptor (Homo sapiens (Human)), pIC50 = 6.91

GET /values?item= CCOc1cc(CC(=O)O)ccc1-c1ccc(F)c2c1CN(C(=O)CC1CCOc3ccccc31)CC2 (racemic) &system= hCRTH2 receptor (Homo sapiens (Human)) returns pIC50: 9.10

The compound COc1ccc(CC(=O)O)cc1-c1ccc(Cl)c2c1CN(C(=O)[C@@H]1C[C@H]1c1cccc(F)c1)CC2 on hCRTH2 receptor (Homo sapiens (Human)): pIC50 was 8.02

Reported hCRTH2 receptor (Homo sapiens (Human)) pIC50 for item CCOc1cc(CC(=O)O)ccc1-c1ccc(F)c2c1CN(C(=O)NCc1ccccn1)CC2 was 8.04

Entry CCOc1ccc(CC(=O)O)cc1-c1ccc(F)c2c1CN(C(=O)OC[C@H](C)c1ccccc1)CC2 : pIC50 on hCRTH2 receptor (Homo sapiens (Human)) = 8.38

Field pIC50 (hCRTH2 receptor (Homo sapiens (Human))), entry CCCCOC(=O)N1CCc2c(F)ccc(-c3cc(CC(=O)O)ccc3OCC)c2C1 : 8.20

For CCOc1cc(CC(=O)O)ccc1-c1ccc(F)c2c1CN(C(=O)CC1COCc3ccccc31)CC2 (racemic) on hCRTH2 receptor (Homo sapiens (Human)), measured pIC50 was 9.22

Simply: COc1ccc(CC(=O)O)cc1-c1cc(F)c(F)c2c1CN(C(=O)[C@@H]1C[C@H]1c1ccccc1)CC2 , hCRTH2 receptor (Homo sapiens (Human)), pIC50 = 8.32

Measured pIC50 for this entry CCOc1cc(CC(=O)O)ccc1-c1ccc(F)c2c1CN(C(=O)CC1(C)CCCc3ccccc31)CC2 (racemic) on hCRTH2 receptor (Homo sapiens (Human)): 8.70
